# SYSTEM TESTED: MAP kinase p38 (Homo sapiens, UniProt O15264+Q15759+Q16539+P53778)
# PROCEDURE TEXT: Inhibitory activity against mitogen-activated protein kinase p38 at 10 e-4 to 10 e-8 M concentration
# Assay type: protein assay
Label key: true means IC50 under 4000 nM; false means IC50 of 4000 nM or more.

CSc1nc(-c2ccc(F)cc2)c(-c2ccnc(NCc3ccccc3)c2)n1C	true
CSc1nc(-c2ccc(F)cc2)c(-c2ccncc2)n1C1CC(C)(C)NC(C)(C)C1	false
CSc1nc(-c2ccc(F)cc2)c(-c2ccnc(NCc3ccc(Cl)cc3)c2)[nH]1	true
CC(Nc1cc(-c2[nH]c(SCc3ccc([S+](C)[O-])cc3)nc2-c2ccc(F)cc2)ccn1)c1ccccc1 (centres undefined)	true
CSc1nc(-c2ccnc(NC(C)c3ccccc3)c2)c(-c2ccc(F)cc2)n1C (centres undefined)	false
CSc1nc(-c2ccc(F)cc2)c(-c2ccnc(N(C)Cc3ccccc3)c2)[nH]1	false
CSc1nc(-c2ccc(F)cc2)c(-c2ccncc2)n1C	true
Fc1ccc(-c2nc(SCc3ccccc3)[nH]c2-c2ccnc(F)c2)cc1	false

Now let's try a different one.
In the record for CSc1nc(-c2ccc(F)cc2)c(-c2ccnc(OC(C)C)c2)[nH]1 , is IC50 less than 4000 nM?
true
